Cited source: patent US20250041429A1

# target-or-system: BTK protein (Homo sapiens, UniProt Q06187)
# Construct: endogenous in cells; host or cells: TMD-8 cells
# Sequence (Q06187 whole entry): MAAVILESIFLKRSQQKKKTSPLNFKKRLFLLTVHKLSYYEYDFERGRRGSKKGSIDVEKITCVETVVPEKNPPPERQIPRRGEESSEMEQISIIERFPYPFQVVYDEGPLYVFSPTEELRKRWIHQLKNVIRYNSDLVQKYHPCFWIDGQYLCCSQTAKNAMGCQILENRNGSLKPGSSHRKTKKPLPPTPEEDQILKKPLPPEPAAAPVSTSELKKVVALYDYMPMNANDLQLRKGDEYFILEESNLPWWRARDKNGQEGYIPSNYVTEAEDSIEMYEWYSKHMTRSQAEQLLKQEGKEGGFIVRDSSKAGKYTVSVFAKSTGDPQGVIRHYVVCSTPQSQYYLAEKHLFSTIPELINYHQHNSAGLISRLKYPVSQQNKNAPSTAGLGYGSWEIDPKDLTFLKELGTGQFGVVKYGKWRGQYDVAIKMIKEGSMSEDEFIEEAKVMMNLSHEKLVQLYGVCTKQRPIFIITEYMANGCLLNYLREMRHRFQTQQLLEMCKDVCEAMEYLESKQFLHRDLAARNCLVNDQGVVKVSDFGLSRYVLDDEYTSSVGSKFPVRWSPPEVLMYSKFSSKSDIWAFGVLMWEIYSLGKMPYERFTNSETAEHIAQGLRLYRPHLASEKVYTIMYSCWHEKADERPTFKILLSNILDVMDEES
# procedure-text: Measurement of BTK protein degradation ability in TMD-8 cells (Western blotting)
# Type: cell-based
# assay-setup: compound 1 nM, harvested after 24 hours
Listing: BTK degradation (%) 1 nM of selected compounds
metric-name: BTK degradation (%) 1 nM

INSERT INTO measurements (compound, metric_name, result_number) VALUES
  ('Cc1cc(-c2ccnc(Nc3ccc(CN4CCN(CC5CCN(c6cccc(N7CCC(=O)NC7=O)c6)CC5)CC4)cc3)n2)ccc1CNC(=O)N1CC(OC(C)C)C1 [Example 67]', 'BTK degradation (%) 1 nM', 13.5),
  ('Cc1cc(-c2ccnc(Nc3ccc(CN4CCC(CN5CCC(c6ccc(NC7CCC(=O)NC7=O)cc6)CC5)CC4)cc3)n2)ccc1CNC(=O)c1cn(C(C)(C)C)nn1 (stereo not drawn) [Example 142]', 'BTK degradation (%) 1 nM', 44.5),
  ('Cc1cc(-c2ccnc(Nc3ccc(C4CCN(CC5CN(c6ccc7c(c6)C(=O)N(C6CCC(=O)NC6=O)C7=O)C5)CC4)cc3)n2)ccc1CNC(=O)c1cnn(C(C)C)c1 (stereo not drawn) [Example 44]', 'BTK degradation (%) 1 nM', 66.0);
